# test_system: Human M4 (Homo sapiens, UniProt P08173)
# Sequence (P08173 whole entry): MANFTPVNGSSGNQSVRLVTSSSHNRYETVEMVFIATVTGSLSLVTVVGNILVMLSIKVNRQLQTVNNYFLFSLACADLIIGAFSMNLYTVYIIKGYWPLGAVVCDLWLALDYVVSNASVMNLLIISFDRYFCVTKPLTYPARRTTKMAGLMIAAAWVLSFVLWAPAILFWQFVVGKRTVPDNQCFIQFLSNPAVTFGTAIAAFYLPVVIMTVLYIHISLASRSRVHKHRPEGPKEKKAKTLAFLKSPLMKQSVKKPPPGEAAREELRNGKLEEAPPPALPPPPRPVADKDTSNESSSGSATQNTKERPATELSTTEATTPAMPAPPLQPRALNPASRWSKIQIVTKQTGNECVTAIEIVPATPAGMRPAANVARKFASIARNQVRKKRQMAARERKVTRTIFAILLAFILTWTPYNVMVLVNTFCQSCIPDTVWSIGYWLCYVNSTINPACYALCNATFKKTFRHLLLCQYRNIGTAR
# experimental_protocol: mAChR M4 cell-based functional assay (calcium flux, antagonist mode vs EC80 acetylcholine), human M4/Gqi5/CHO-K1 cells
# measurement_parameters: decrease of response elicited by EC80 acetylcholine; human M4/Gqi5 CHO-K1 cells
reported_property: pIC50
Formally, pIC50 is defined as -log10 of the concentration c, with c in mol/L.

Form field: reported pIC50 of Cc1cc(CN2C[C@H]3C[C@H](Nc4ccc(S(=O)(=O)c5ccccc5)nn4)C[C@H]3C2)ccc1F
6.29

Consider the molecule Cc1nn(C)cc1-c1ccc(N[C@H]2C[C@@H]3CN(C4CCOC(C)(C)C4)C[C@@H]3C2)nn1 (some centres unmarked) and give its measured pIC50.
8.34

Recorded pIC50 of Cc1cc2c(cc1CN1C[C@H]3C[C@H](Nc4ccc(S(=O)(=O)C5CCCCC5)nn4)C[C@H]3C1)OCO2 , please.
6.14

Would you mind telling me what pIC50 value was observed for Cn1cc2cc(-c3ccc(N[C@H]4C[C@@H]5CN(C6CCOCC6)C[C@@H]5C4)nn3)ccc2n1 ?
5.76

Which pIC50 is reported for this molecule? Cc1cnn(C)c1-c1ccc(N[C@H]2C[C@@H]3CN(C4CCOC(C)(C)C4)C[C@@H]3C2)nn1 (some centres unmarked)
7.54

// pIC50 lookup, key: O=C(NC1CCCCC1)c1ccc(N[C@H]2C[C@@H]3CN(CC4CCOCC4)C[C@@H]3C2)nn1
6.27

For O=S(=O)(c1ccccc1)c1ccc(N[C@H]2C[C@@H]3CN(Cc4ccc5c(c4)OCO5)C[C@@H]3C2)nn1 , what is its reported pIC50?
7.89

Fill in: pIC50 of O=S1(=O)CCC(N2C[C@H]3C[C@H](Nc4ccc(-c5cc(F)ccc5Cl)nn4)C[C@H]3C2)CC1 is ___
5.76

Form field: reported pIC50 of O=C(c1ccc(N[C@H]2C[C@@H]3CN(CC4CCOCC4)C[C@@H]3C2)nn1)N1CCCCC1
8.26

Reported pIC50 for O=S(=O)(c1ccc(N[C@H]2C[C@@H]3CN(Cc4ccccn4)C[C@@H]3C2)nn1)C1CCCCC1 : what is it?
6.98

# query: pIC50 of entry O=C(Nc1ccc(F)cc1)c1ccc(N[C@H]2C[C@@H]3CN(CC4CCOCC4)C[C@@H]3C2)nn1
6.27

# input molecule: O=S(=O)(c1ccc(N[C@H]2C[C@@H]3CN(Cc4ccc5c(c4)OCO5)C[C@@H]3C2)nn1)C1CCCCC1 ; wanted: its pIC50
8.42

Would you kindly share the measured pIC50 for Fc1ccc(Cl)c(-c2ccc(N[C@H]3C[C@@H]4CN(C5CCSCC5)C[C@@H]4C3)nn2)c1 ?
7.99

What does the record list as pIC50 for Cc1cccnc1CN1C[C@H]2C[C@H](Nc3ccc(S(=O)(=O)c4ccccc4)nn3)C[C@H]2C1 ?
6.66

###

# test_system: Human M4 (Homo sapiens)
# Construct: expressed in transfected cells; host or cells: CHO-K1 (ATCC), stably co-expressing chimeric G protein Gqi5
# experimental_protocol: mAChR M4 cell-based functional assay (calcium flux, antagonist mode vs EC80 acetylcholine), human M4/Gqi5/CHO-K1 cells
# measurement_parameters: CHO-K1; % ACh maximum at 30 μM; human M4; read-out: Human M4 Emin (%)
# Method: Human or rat M4 cDNA, along with the chimeric G protein Gqi5, were transfected into Chinese hamster ovary (CHO-K1) cells purchased from the American Type Culture Collection using Lipofectamine2000. […] Calcium flux was measured using the Functional Drug Screening System (FDSS) 6000 or 7000 (Hamamatsu Corporation, Tokyo, Japan) as an increase in the fluorescent static ratio. […] Agonist activity was analyzed as a concentration-dependent increase in calcium mobilization upon compound addition. […]
reported_property: remaining activity at 30 µM (%)
Give the value in % but do not write % after it.

Could you share which remaining activity at 30 µM value was measured for N#Cc1ccccc1N1C[C@H]2C[C@H](Nc3ccc(-c4cc(F)ccc4Cl)nn3)C[C@H]2C1 ?
57

Recorded remaining activity at 30 µM for COCCCN1C[C@H]2C[C@H](Nc3ccc(-c4cc(F)ccc4Cl)nn3)C[C@H]2C1 , please?
4

State the recorded remaining activity at 30 µM for this entry: O=S(=O)(c1ccccc1)c1ccc(N[C@H]2C[C@@H]3CN(Cc4ccccn4)C[C@@H]3C2)nn1
6

Given the compound O=S(=O)(c1ccccc1)c1ccc(N[C@H]2C[C@@H]3CN(Cc4ccc5c(c4)OC(F)(F)O5)C[C@@H]3C2)nn1 , what is its reported remaining activity at 30 µM?
3

Fill in: remaining activity at 30 µM of Fc1ccc(Cl)c(-c2ccc(N[C@H]3C[C@@H]4CN(C5Cc6ccccc6C5)C[C@@H]4C3)nn2)c1 is ___
3

Data request, read-out remaining activity at 30 µM, for Cc1cc(CN2C[C@H]3C[C@H](Nc4ccc(S(=O)(=O)C5CCCCC5)nn4)C[C@H]3C2)nn1C
6

Need remaining activity at 30 µM of Cn1cc2cc(-c3ccc(N[C@H]4C[C@@H]5CN(C6CCOC(C)(C)C6)C[C@@H]5C4)nn3)ccc2n1 (stereo partly shown) , thanks.
3

###

# test_system: Human M4 (Homo sapiens, UniProt P08173)
# Construct: expressed in transfected cells; host or cells: CHO-K1 (ATCC), stably co-expressing chimeric G protein Gqi5
# experimental_protocol: mAChR M4 cell-based functional assay (calcium flux, antagonist mode vs EC80 acetylcholine), human M4/Gqi5/CHO-K1 cells
# measurement_parameters: CHO-K1; % ACh maximum at 30 μM; human M4; read-out: Human M4 Emin (%)
Would you mind telling me the reported remaining activity at 30 µM of each entry?
Quick reminder: number only, in %, skip the unit.

Can you look up the measured remaining activity at 30 µM of CC1(C)CC(N2C[C@H]3C[C@H](Nc4ccc(-c5cc(F)ccc5F)nn4)C[C@H]3C2)CCO1 (some centres unmarked) for me?
3

Would you kindly share the measured remaining activity at 30 µM for CC1(C)CC(N2C[C@H]3C[C@H](Nc4ccc(Cl)nn4)C[C@H]3C2)CCO1 (some centres unmarked) ?
9

If you can, please state the reported remaining activity at 30 µM value of Fc1ccc(Cl)c(-c2ccc(N[C@H]3C[C@@H]4CN(C5CCC6(CCOCC6)CC5)C[C@@H]4C3)nn2)c1 .
3

Suppose we examine the compound CCCN1C(=O)C(C)(C)c2cc(N[C@H]3C[C@@H]4CN(CCC(C)(C)C)C[C@@H]4C3)nnc21 ; what remaining activity at 30 µM value has been reported?
4

What value of measured remaining activity at 30 µM is listed for O=S(=O)(c1ccccc1)c1ccc(N[C@H]2C[C@@H]3CN(CC4CCOCC4)C[C@@H]3C2)nn1 ?
4

I would be grateful if you could share the reported remaining activity at 30 µM for CC1(C)CC(N2C[C@H]3C[C@H](Nc4ccc(-c5ccc(F)cc5)nn4)C[C@H]3C2)CCO1 (some centres unmarked) .
3

# query: remaining activity at 30 µM of entry O=S(=O)(c1ccccc1)c1ccc(N[C@H]2C[C@@H]3CN(Cc4ncccc4C(F)(F)F)C[C@@H]3C2)nn1
6

Sample CC1(C)CC(N2C[C@H]3C[C@H](Nc4ccc(-c5cccc(F)c5)nn4)C[C@H]3C2)CCO1 (some centres unmarked) — what was its remaining activity at 30 µM?
3

Field request: remaining activity at 30 µM | item: Fc1ccc(Cl)c(-c2ccc(N[C@H]3C[C@@H]4CN(C5CCCCCC5)C[C@@H]4C3)nn2)c1
2

Report remaining activity at 30 µM for O=C(Nc1ccc(F)cc1)c1ccc(N[C@H]2C[C@@H]3CN(CC4CCOCC4)C[C@@H]3C2)nn1 please.
4

Which remaining activity at 30 µM is listed for CC1(C)CCC(N2C[C@H]3C[C@H](Nc4ccc(-c5cc(F)ccc5Cl)nn4)C[C@H]3C2)CC1 ?
3

Using the record for CC1(C)CC(N2C[C@H]3C[C@H](Nc4ccc(-c5cc(F)ccc5Cl)nn4)C[C@H]3C2)CCO1 (some centres unmarked) , report its remaining activity at 30 µM.
4

Quick check: remaining activity at 30 µM of Cn1cc2cc(-c3ccc(N[C@H]4C[C@@H]5CN(C6CCOCC6)C[C@@H]5C4)nn3)ccc2n1 ?
9

Using the record for CC1(C)CC(N2C[C@H]3C[C@H](Nc4ccc(N5CCC(F)(F)CC5)nn4)C[C@H]3C2)CCO1 (some centres unmarked) , report its remaining activity at 30 µM.
3

###

# test_system: Human M4 (Homo sapiens)
# Construct: expressed in transfected cells; host or cells: CHO-K1 (ATCC), stably co-expressing chimeric G protein Gqi5
# experimental_protocol: mAChR M4 cell-based functional assay (calcium flux, antagonist mode vs EC80 acetylcholine), human M4/Gqi5/CHO-K1 cells
# measurement_parameters: CHO-K1; % ACh maximum at 30 μM; human M4; read-out: Human M4 Emin (%)
I'd appreciate it if you could supply remaining activity at 30 µM values for the items below.
Number in %, nothing else.

remaining activity at 30 µM lookup needed for CC1(C)CC(N2C[C@H]3C[C@H](Nc4ccc(-c5cc(F)ccc5Cl)nn4)C[C@H]3C2)CC(C)(C)O1 , thanks.
4

I am curious: what remaining activity at 30 µM value has been reported for Cc1cc(CN2C[C@H]3C[C@H](Nc4ccc(S(=O)(=O)C5CCCCC5)nn4)C[C@H]3C2)ccc1F ?
4

Quick check: remaining activity at 30 µM of O=S(=O)(c1ccc(N[C@H]2C[C@@H]3CN(Cc4ccc5cc[nH]c5c4)C[C@@H]3C2)nn1)C1CCCCC1 ?
3

Find the recorded remaining activity at 30 µM belonging to Cc1nn(C)cc1-c1ccc(N[C@H]2C[C@@H]3CN(C4CCOC(C)(C)C4)C[C@@H]3C2)nn1 (stereo partly shown) and report it.
6

Any idea what remaining activity at 30 µM was measured for [O-][S+](c1ccccc1)c1ccc(N[C@H]2C[C@@H]3CN(CC4CCOCC4)C[C@@H]3C2)nn1 (stereo partly shown) ?
5

# remaining activity at 30 µM lookup, item [O-][S+](c1ccccc1)c1ccc(N[C@H]2C[C@@H]3CN(Cc4ccc5c(c4)OCO5)C[C@@H]3C2)nn1 (stereo partly shown)
4

May I ask what remaining activity at 30 µM has been recorded for O=C(Nc1cccc(F)c1)c1ccc(N[C@H]2C[C@@H]3CN(CC4CCOCC4)C[C@@H]3C2)nn1 ?
3
